Please go through the items and note down their KA.
# Experimental target: anti-TNFα antibody-Fab (IgG-Fab derived from anti-TNFα monoclonal antibody, adalimumab) (Homo sapiens, UniProt P01834+P01857)
# Construct: cleaving a humanized monoclonal IgG formulation as a starting material into a Fab fragment and an Fc fragment by papain; purchased
# Method notes: Biacore 3000 surface plasmon resonance, affinity of SpG-β1 mutants for immobilized IgG-Fab
# Assay type: binding
# Condition info: Table 3, Example 4; GST-cleaved type (Pep-), constructs Pep.1d, Pep.1dC, Pep.2dC
Kindly provide the numeric value in M⁻¹ only, without the unit symbol.

INPUT: Param item = Pep.1d K13T/E19I/V21D/T25M/F30L/Y33F/N35F/D47A (TTYKLILNGKTLTGETTTIADDAAMAEKVLKQFAFDNGVDGEWTYDAATKTFTVTE) ; retrieve measured KA.
OUTPUT: 4.24e+06

INPUT: Param item = Pep.2dC K13T/E19I/V21D/T25M/F30L/Y33F/N35F/D47A (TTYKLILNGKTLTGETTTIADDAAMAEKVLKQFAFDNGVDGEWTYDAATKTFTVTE) ; retrieve measured KA.
OUTPUT: 9.68e+06

INPUT: Param item = Pep.2dC K13T/T18A/E19I/V21A/K28I/F30L/Y33F/V39I (TTYKLILNGKTLTGETTAIAADAATAEIVLKQFANDNGIDGEWTYDDATKTFTVTE) ; retrieve measured KA.
OUTPUT: 1.02e+07
